- MEASURED_TARGET: ALK1 ECD (Homo sapiens, UniProt P37023)
- Sequence (P37023 22-118): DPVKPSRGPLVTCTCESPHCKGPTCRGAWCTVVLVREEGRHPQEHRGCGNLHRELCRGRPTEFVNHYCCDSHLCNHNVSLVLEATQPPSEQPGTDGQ
- ASSAY_NAME: BLI
ASSAY_READOUT: Kd (µM)

BINDER	Kd (µM)
BMP-9 (protein) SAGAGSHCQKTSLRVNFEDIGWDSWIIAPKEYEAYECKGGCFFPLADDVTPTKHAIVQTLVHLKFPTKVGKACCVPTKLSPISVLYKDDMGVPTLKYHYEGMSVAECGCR	0.0002

I = BMP-2 (protein) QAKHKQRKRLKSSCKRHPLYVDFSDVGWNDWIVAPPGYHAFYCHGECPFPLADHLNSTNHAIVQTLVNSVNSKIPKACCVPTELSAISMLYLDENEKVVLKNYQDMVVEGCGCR
II = BMP-4 (protein) SPKHHSQRARKKNKNCRRHSLYVDFSDVGWNDWIVAPPGYQAFYCHGDCPFPLADHLNSTNHAIVQTLVNSVNSSIPKACCVPTELSAISMLYLDEYDKVVLKNYQEMVVEGCGCR
III = BMP-7 (protein) STGSKQRSQNRSKTPKNQEALRMANVAENSSSDQRQACKKHELYVSFRDLGWQDWIIAPEGYAAYYCEGECAFPLNSYMNATNHAIVQTLVHFINPETVPKPCCAPTQLNAISVLYFDDSSNVILKKYRNMVVRACGCH
Input: Hello, I need these entries ordered by Kd, highest reading first. Thanks! Give me the labels in the order the question wants.
Output: II, III, I
(II: 0.0554 µM, III: 0.0231 µM, I: 0.013 µM)
